# assayed_target: UniProt:P08908
# Sequence (P08908 whole entry): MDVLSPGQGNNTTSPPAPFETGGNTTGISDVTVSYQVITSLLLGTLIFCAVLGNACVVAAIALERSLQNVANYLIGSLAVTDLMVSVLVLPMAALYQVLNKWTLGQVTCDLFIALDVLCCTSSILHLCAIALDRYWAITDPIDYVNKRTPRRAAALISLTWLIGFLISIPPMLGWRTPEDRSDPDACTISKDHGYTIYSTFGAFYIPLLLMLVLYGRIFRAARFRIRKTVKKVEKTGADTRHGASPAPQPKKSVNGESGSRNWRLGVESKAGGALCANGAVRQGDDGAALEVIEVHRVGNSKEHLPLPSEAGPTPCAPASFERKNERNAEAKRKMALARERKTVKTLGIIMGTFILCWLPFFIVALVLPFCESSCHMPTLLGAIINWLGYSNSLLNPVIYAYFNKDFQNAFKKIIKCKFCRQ
# test_details: Antagonistic efficacy as adenylyl cyclase assay in CHO cells expressing human 5-HT1A receptor (experiment 1)
# Type: functional, cell-based
readout: Efficacy (%)
Give bare numbers, in %.

Use these answered entries as a reference point.
{"columns": ["compound", "readout_unit", "result_value"],
 "data": [
  ["O=C1c2ccccc2S(=O)(=O)N1CCN1CCN(c2cccc3c2OCCO3)CC1", "%", 0],
  ["O=C1c2ccccc2C(=O)N1CCN1CCN(c2cccc3c2OCCO3)CC1", "%", 0]
]}

Now consider a different compound.
Record request: Efficacy value, item O=C1c2ccccc2S(=O)(=O)N1CCCCN1CCN(c2cc(Cl)cc3c2OCCO3)CC1 [DU 125530]
100
